remaining activity at 10 µM by entry:
Biological target: BLK (Homo sapiens)
Construct: purchased Reaction Biology (HotSpot contract assay)
Sequence (P51451 whole entry): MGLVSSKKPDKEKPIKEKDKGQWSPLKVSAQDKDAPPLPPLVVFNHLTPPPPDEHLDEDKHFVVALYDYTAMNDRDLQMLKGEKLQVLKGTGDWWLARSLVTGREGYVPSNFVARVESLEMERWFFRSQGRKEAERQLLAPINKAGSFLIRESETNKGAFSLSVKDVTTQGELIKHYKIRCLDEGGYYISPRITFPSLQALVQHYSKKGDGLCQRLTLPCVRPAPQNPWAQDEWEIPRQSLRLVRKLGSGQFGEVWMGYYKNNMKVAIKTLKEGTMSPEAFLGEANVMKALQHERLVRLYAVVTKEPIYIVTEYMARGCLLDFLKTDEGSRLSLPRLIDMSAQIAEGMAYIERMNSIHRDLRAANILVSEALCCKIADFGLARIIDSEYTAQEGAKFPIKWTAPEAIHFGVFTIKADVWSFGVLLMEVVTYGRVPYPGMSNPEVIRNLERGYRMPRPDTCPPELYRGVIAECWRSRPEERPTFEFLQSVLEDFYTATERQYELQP
Experiment: HotSpot in vitro kinase radiometric assay
Type: biochemical
Settings: BLK; 10uM; ATP 10 uM; Data 1, Data 2; read-out: % Enzyme Activity (relative to DMSO controls)

1. C[C@@H]1C[C@H]2O[C@@H]2/C=C\C=C\C(=O)Cc2c(Cl)c(O)cc(O)c2C(=O)O1: 104%
2. COC1=C2C[C@@H](C)C[C@H](OC)[C@H](O)[C@@H](C)/C=C(\C)[C@H](OC(N)=O)[C@@H](OC)/C=C\C=C(/C)C(=O)NC(=CC1=O)C2=O: 121%
3. CCNC(=O)c1noc(-c2cc(Cl)c(O)cc2O)c1-c1ccc(OC)cc1: 94%

For the compound `CCc1cc(-c2[nH]nc(C)c2-c2ccc3c(c2)OCCO3)c(O)cc1O` , report remaining activity at 10 µM.
15.3%

For the compound `CC(C)c1cc(C(=O)N2Cc3ccc(CN4CCN(C)CC4)cc3C2)c(O)cc1O` , report remaining activity at 10 µM.
108%
